System: 947758-054-R-J2-PDC spheroid growth, percent test/control;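 also: spheroids exposed to compounds for one week before readout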
Assay: Anticancer human tumor 947758-054-R-J2-PDC patient-derived colon adenocarcinoma cell line growth inhibition [CLK]; active = viability on the fitted dose curve at most 10% of control; inactive = the rest
Conditions: second compound 10 µM; first compound 3.16 µM; spheroids with HUVEC and MSC
Give one outcome, nothing more. List: Yes for active, No for inactive

Some solved entries appear below for comparison.
{"Compound": "COC1C=CCC(C)C(C)S(=O)(=O)NC(=O)c2ccc3c(c2)N(CC2CCC21)CC1(CCCc2cc(Cl)ccc21)CO3 (configuration not stated) + CNC(=O)c1ccc(Nc2nc(OC3CCCC3)c3c(-c4ccc5nc(C)oc5c4)c[nH]c3n2)c(OC)c1", "Cat": "No"}
{"Compound": "CC(=O)O[C@H]1C(=O)[C@@]2(C)[C@H]([C@H](OC(=O)c3ccccc3)[C@]3(O)C[C@H](OC(=O)[C@H](O)[C@@H](NC(=O)c4ccccc4)c4ccccc4)C(C)=C1C3(C)C)[C@]1(OC(C)=O)CO[C@@H]1C[C@@H]2O + CN1CCN(c2cc(C(=O)Nc3cc4cc(-c5cnn(C)c5)ccc4cn3)ccn2)CC1", "Cat": "Yes"}
{"Compound": "O=C(c1cc(Cc2n[nH]c(=O)c3ccccc23)ccc1F)N1CCN(C(=O)C2CC2)CC1 + CNC(=O)c1ccc(Nc2nc(OC3CCCC3)c3c(-c4ccc5nc(C)oc5c4)c[nH]c3n2)c(OC)c1", "Cat": "No"}
{"Compound": "C#Cc1c(F)ccc2cc(O)cc(-c3ncc4c(N5CC6CCC(C5)N6)nc(OCC56CCCN5CC(F)C6)nc4c3F)c12 (configuration not stated) + CN1CCN(c2cc(C(=O)Nc3cc4cc(-c5cnn(C)c5)ccc4cn3)ccn2)CC1", "Cat": "Yes"}
{"Compound": "COC1C=CCC(C)C(C)S(=O)(=O)NC(=O)c2ccc3c(c2)N(CC2CCC21)CC1(CCCc2cc(Cl)ccc21)CO3 (configuration not stated) + CN1CCN(c2cc(C(=O)Nc3cc4cc(-c5cnn(C)c5)ccc4cn3)ccn2)CC1", "Cat": "Yes"}
{"Compound": "O=c1[nH]cc(F)c(=O)[nH]1 + CNC(=O)c1ccc(Nc2nc(OC3CCCC3)c3c(-c4ccc5nc(C)oc5c4)c[nH]c3n2)c(OC)c1", "Cat": "No"}
{"Compound": "CC(Nc1ccc2c(c1)OCCn1cc(N3C(=O)OCC3C(F)F)nc1-2)C(N)=O (configuration not stated) + CN1CCN(c2cc(C(=O)Nc3cc4cc(-c5cnn(C)c5)ccc4cn3)ccn2)CC1", "Cat": "Yes"}
{"Compound": "C#Cc1c(F)ccc2cc(O)cc(-c3ncc4c(N5CC6CCC(C5)N6)nc(OCC56CCCN5CC(F)C6)nc4c3F)c12 (configuration not stated) + CNC(=O)c1ccc(Nc2nc(OC3CCCC3)c3c(-c4ccc5nc(C)oc5c4)c[nH]c3n2)c(OC)c1", "Cat": "No"}
{"Compound": "O=c1[nH]cc(F)c(=O)[nH]1 + CN1CCN(c2cc(C(=O)Nc3cc4cc(-c5cnn(C)c5)ccc4cn3)ccn2)CC1", "Cat": "Yes"}
{"Compound": "CC(CO)NC(=O)c1cc(-c2ccc(Cl)cc2)nn(-c2cnn(C)c2)c1=O (configuration not stated) + CNC(=O)c1ccc(Nc2nc(OC3CCCC3)c3c(-c4ccc5nc(C)oc5c4)c[nH]c3n2)c(OC)c1", "Cat": "No"}

How was C=CC(=O)N1CCN(c2nc(=O)n(-c3c(C)ccnc3C(C)C)c3nc(-c4c(O)cccc4F)c(F)cc23)C(C)C1 (configuration not stated) + CNC(=O)c1ccc(Nc2nc(OC3CCCC3)c3c(-c4ccc5nc(C)oc5c4)c[nH]c3n2)c(OC)c1 classified in this test?
No

How was CCCS(=O)(=O)Nc1ccc(F)c(C(=O)c2c[nH]c3ncc(-c4ccc(Cl)cc4)cc23)c1F + CNC(=O)c1ccc(Nc2nc(OC3CCCC3)c3c(-c4ccc5nc(C)oc5c4)c[nH]c3n2)c(OC)c1 classified in this test?
Yes
